- tested_system: T1, human GFRα3 expressed with a C-terminal myc-myc-hexahistidine tag (human, UniProt O60609 32-374, biotinylated (sites not given) in ELISA format 2 and in the Octet cross-competition; not in SPR)
- T1 construct: also called hGFRα3-mmh; hGFRα3-mmH
- T1 sequence (O60609 other isoform, or with tags, fused parts or gaps limits assumed): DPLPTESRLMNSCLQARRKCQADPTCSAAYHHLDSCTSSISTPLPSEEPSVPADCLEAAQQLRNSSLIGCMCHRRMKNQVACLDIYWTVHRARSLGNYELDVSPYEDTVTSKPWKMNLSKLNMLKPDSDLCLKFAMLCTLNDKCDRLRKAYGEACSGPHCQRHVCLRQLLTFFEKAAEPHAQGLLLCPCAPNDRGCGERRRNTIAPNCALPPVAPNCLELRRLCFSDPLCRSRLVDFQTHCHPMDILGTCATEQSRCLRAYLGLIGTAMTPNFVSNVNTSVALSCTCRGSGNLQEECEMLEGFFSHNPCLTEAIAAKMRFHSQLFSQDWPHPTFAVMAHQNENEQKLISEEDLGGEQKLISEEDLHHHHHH
- assay_procedure: SPR, Ab captured, 37C
- Source text: […]
property_name: Kd (nM)
// units = nM; emit number, no label

H4H2350P (antibody, human IgG4, V domains shown, human IgG4 Fc (H4H)) VH: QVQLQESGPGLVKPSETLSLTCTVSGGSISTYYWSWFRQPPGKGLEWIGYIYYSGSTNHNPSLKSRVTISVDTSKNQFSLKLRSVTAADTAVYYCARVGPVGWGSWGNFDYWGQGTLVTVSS VL: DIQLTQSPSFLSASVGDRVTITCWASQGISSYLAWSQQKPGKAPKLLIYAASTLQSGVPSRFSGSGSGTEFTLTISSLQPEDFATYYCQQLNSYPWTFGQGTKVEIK	9.61

We next turn to a different binder, shown below.
What Kd value was documented for this binder, H4H2293P (antibody, human IgG4, V domains shown, human IgG4 Fc (H4H)) VH: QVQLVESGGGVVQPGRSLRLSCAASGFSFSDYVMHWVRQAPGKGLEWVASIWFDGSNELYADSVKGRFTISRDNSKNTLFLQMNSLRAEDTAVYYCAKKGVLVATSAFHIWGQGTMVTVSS VL: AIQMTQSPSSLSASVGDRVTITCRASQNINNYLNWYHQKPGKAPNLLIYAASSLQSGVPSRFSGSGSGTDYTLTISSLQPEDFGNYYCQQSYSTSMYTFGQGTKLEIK ? 0.313
